- assay method text: Phase 1 Part 2 plasma pharmacokinetics (mild asthma)
- Assay type: in vivo, human
- stated conditions: human, plasma, inhaled, 8 mg, 8 mg BID, Day 10, read-out: AUC0-last non-zero Geometric mean
- Description: Day 10 pharmacokinetic parameters for Parts 2 and 3 of Phase I are summarized below in Table 28. Part 2 involved the administration of 4 different dose regimens, to subjects with mild asthma naïve to ICS therapy, over a 10-day period. Each separate cohort comprised 6 subjects receiving active treatment with 2 receiving matching placebo. Blood samples were collected to enable the measurement of Compound I concentrations in plasma. […]
endpoint label: AUC(0-t) (ng·h/mL)
Numeric only. Scale: ng·h/mL

Ask | Need AUC(0-t) of Cn1c(=O)n([C@H]2CCCN(C(=O)CC#N)C2)c2nc(-c3cnn4ccccc34)ccc21 [Compound I] , thanks.
Reply | 662
